Provide the reported Km of each item.
tested on: L-asparaginase (pure asparaginase) from Fusarium falciforme AUMC 16563; construct: native extracellular enzyme purified from culture supernatant (ethanol, DEAE-cellulose, Sephacryl S-200 HR); assay: Nesslerization (ammonia release, […] nm), Lineweaver-Burk; format: biochemical; settings: substrate 2.0-20.0 mM; pH and temperature of the kinetic assay not given
Express it in mM; write the number only.

Task: Return Km for the following compound: NC(=O)CC[C@H](N)C(=O)O [L-glutamine]
Result: 9.12

Task: Return Km for the following compound: N[C@@H](CCC(=O)O)C(=O)O [glutamic acid]
Result: 12.2

Task: Return Km for the following compound: N[C@@H](CC(=O)O)C(=O)O [aspartic acid]
Result: 10.1

Task: Return Km for the following compound: NC(=O)C[C@H](N)C(=O)O [L-asparagine]
Result: 0.0577
